Target: human TREX2 (residues M44-A279) (Homo sapiens, UniProt Q9BQ50)
Construct: human TREX2 (residues M44-A279, expressed in E. coli); His-Tev (His tag with TEV protease site) (N)
Sequence (Q9BQ50 whole entry, the tested form may be a part): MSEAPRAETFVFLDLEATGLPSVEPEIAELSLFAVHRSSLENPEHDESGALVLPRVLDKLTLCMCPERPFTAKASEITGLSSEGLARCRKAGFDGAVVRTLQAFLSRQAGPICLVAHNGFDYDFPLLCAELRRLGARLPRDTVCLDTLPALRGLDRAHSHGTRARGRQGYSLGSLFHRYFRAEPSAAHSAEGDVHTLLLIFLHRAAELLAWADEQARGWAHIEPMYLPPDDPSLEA
Test: TREX2 Biochemical Assay (fluorescence assay, degradation of dsDNA substrate)
Settings: 2.5 nM TREX2, 60 nM dsDNA substrate, 25 minutes at room temperature; read-out: hTREX2 EC50
pEC50: −log10 of the molar value.
MEASUREMENT_TYPE: pEC50

Record summary for O=C(c1cccc(F)c1)N(Cc1cccnc1)C1Cc2ccccc2C1 [Compound 134] : reported pEC50 = < 4.00

Record summary for CC(C)c1ccc(C(=O)N(Cc2cccnc2)Cc2ccc(Cl)cc2Cl)cc1 [Compound 85] : reported pEC50 = < 4.00

Record summary for CC(C)Oc1ccc(C(=O)N(Cc2cccnc2)Cc2cc(Cl)cc(Cl)c2)cc1 [Compound 54] : reported pEC50 = < 4.00

Record summary for C[C@H](c1cccc(Cl)c1Cl)N(Cc1ccc(C(=O)O)nc1)C(=O)c1cc(F)cc(F)c1 [Compound 173] : reported pEC50 = 4.00 to 5.00

Record summary for CC[C@@H](c1ccc(OC)c(OC)c1Cl)N(Cc1ccc(C(=O)O)nc1)C(=O)c1cc(F)cc(F)c1 [Compound 227] : reported pEC50 = 5.00 to 6.00
